The reported numbers originate from the EternaBench riboswitch data.

Listed next: entries and their corresponding apparent Kd.
system: MS2 coat protein; experiment: apparent Kd, MS2 coat protein; higher = weaker binding; RNA-MaP array; FMN 200 µM where present; conditions: ligand present: flavin mononucleotide; designed as: OFF switch for flavin mononucleotide
Write down the numeric answer in nM and omit the unit.

| Seq | Unit descriptor | apparent Kd |
| --- | --- | --- |
| UGAACUAUGUAGAAGGCCCAUAUCUAUAUUUAGGGAGGAUAUACAUGAGGAUCACCCAUGUAUAGAGCGGGUGGACCCGUCACU | nM | 72.1 |
| AUUAUGUAAGGAUAUCUUACAUGUGACUUCGGUCACUGUUAAGAGAAGGUACAUGAGGAUCACCCAUGUAGAAC | nM | 28.7 |
| UUGGACCUAGGAUAUACAUGAGGAUCACCCAUGUUGGCGCACGCCCACCUGGGCCCGAGUAGAAGGAGGAAUGU | nM | 20.3 |
| UAUGUAUUCGUAGGAUAUCCGUCGCCACCGUGUGGAGAAGGACGAACAUGAGGAUCACCCAUGUAUCAUGGUGUAGACACUUUC | nM | 183 |

Problem: I have this sequence here, `UUUUUACAUGAGGAUCACCCAUGUCAGGAUAUGUUUAUAUUUUAUUAUUUUAUUUUUUACAGAAGGGACUAUUA` , and I need its recorded apparent Kd.
Solution: 66.6

Problem: I have this sequence here, `CGAUAUUAUGCAGGAUAUCUUCCUUGAAUGAGGAGAGAAGGGCAUAGGGAGACAUAAGCCUUAUUACAUGAGGAUCACCCAUGU` , and I need its recorded apparent Kd.
Solution: 8.83

---

test system: MS2 coat protein; assay: apparent Kd, MS2 coat protein; higher = weaker binding; RNA-MaP array; FMN 200 µM where present; settings: ligand present: flavin mononucleotide; designed as: OFF switch for flavin mononucleotide
Use TRUE when the recorded apparent Kd is no lower than 30 nM; use FALSE when it is lower.

Problem: Given `CAUGGCACGUAGGAUAUCUCGCAGCCCGGCUGCAGAGAAGGACGUACAUGAGGAUCACCCAUGUAUGAUCCAAA` , state whether its apparent Kd is at least 30 nM.
Solution: TRUE

---

test system: MS2 coat protein; test: apparent Kd, MS2 coat protein; higher = weaker binding; RNA-MaP array; conditions: ligand present: flavin mononucleotide; designed as: ON switch for flavin mononucleotide
Use met when the recorded apparent Kd is no lower than 9 nM; use not met when it is lower.

Sample answers from the record:
| Seq | Label |
| --- | --- |
| AAACCAUCAAACACAUGAGGAUCACCCAUGUCUAAAGAAAUGUAGGAUAUGUAAUACCUAGUCAAACAGAAGGACAUUCAAGAU | not met |
| ACCGGACAUGAGGAUCACCCAUGUCUUGCAUAGGUAGGAUAUGAAUCAAGGACUUGAUCAUCAGAAGGACCCAGGC | not met |
| GACAUGAGGAUCACCCAUGUUUCGGUUACAUUGUAAUCAUGAUAGGAUAUCUCUGCUGUGGUGAGAGAGAAGGAUCGUCUGCUU | met |
| UGUUGCAGCCACAUGAGGAUCACCCAUGUGCUCAGGAUCGUUGAGGAUAUCGAGGUAGGGUCAGCCGAGAAGGCAAGGGUCGCG | not met |
| UGAAUGCACCAGAAGGCUGGAAGAGUAUUUAACAGAGGAUAUGGAACAUAAAGAUCACAUGAGGAUCACCCAUGUACACAUAAC | met |

In the following, a different sequence is considered.
Problem: Given `UGAACGUCAAGGCAGGAUAUUCUCAAGACAACAUGAGGAUCACCCAUGUUACAACGAUAAAUGAUGAAGAAGGGCCAGGGAUCAUA` , state whether its apparent Kd is at least 9 nM.
Solution: not met

---

system: MS2 coat protein; assay: apparent Kd, MS2 coat protein; higher = weaker binding; RNA-MaP array; FMN 200 µM where present; details: designed as: ON switch for flavin mononucleotide; no ligand
Use True when the recorded apparent Kd is no lower than 30 nM; use False when it is lower.

Sample answers from the record:
| Seq | Label |
| --- | --- |
| GGAAUAUUUACAGGAUAUGUUUUGUUAAGUCGAGCAGAAGGGUAGAUGUCUUACACGGUUUGUUACAUGAGGAUCACCCAUGUU | True |
| CCAUAUAAAUAAGGAUAUUAAGUUGAUUAUCCUCAAACAUGAGGAUCACCCAUGUAUAGUCUUAUUAAGAAGGUAUAGUGUUGG | True |
| ACAGAAGCACCCGGAACCGGACAAUGAGAAGGCCACGCACAUGAGGAUCACCCAUGUAAAGCUAUGGAGGAUAUCAUGAUGGAU | True |

Problem: Given `GUAGCAUUGUGAGGAUAUCCAUAUCCGAAAGGGACAUGAGGAUCACCCAUGUCGCGAAAGCGGUGGGAGAAGGCACUAUGCUAC` , state whether its apparent Kd is at least 30 nM.
Solution: False

Problem: Given `AUUACAAUUUUAUACAUGAGGAUCACCCAUGUUAUAAGUCAUGAGGAUAUGGUAUUGUAGUUAUUCCAGAAGGCAUUUAGCUAA` , state whether its apparent Kd is at least 30 nM.
Solution: False

Problem: Given `ACAUGAGGAUCACCCAUGUUCACAUAGGAUAUUGAUUAUAUUGGUUUAAGAAUAGUAAUUAACCUCAAGAAGGAUGCCUGAUCU` , state whether its apparent Kd is at least 30 nM.
Solution: False

---

test system: MS2 coat protein; assay: apparent Kd, MS2 coat protein; higher = weaker binding; RNA-MaP array; FMN 200 µM where present; details: ligand present: flavin mononucleotide; designed as: ON switch for flavin mononucleotide
Use true when the recorded apparent Kd is no lower than 10 nM; use false when it is lower.

| Seq | Label |
| --- | --- |
| ACGUGGAGUCCGCAACAGAACACACAGGAUAUGAGUGGGCACAUGAGGAUCACCCAUGUUACGGAUCAGAAGGGUGUGCUCAUG | true |
| GGGUACAUCGGAGGAUAUCAUGCAAAUACAUGAGGAUCACCCAUGUCGAUGGAGACAUCGGAGAUUGAGAAGGCCGAUGUACCG | false |
| GUAGCAUUCUGAGGAUAUUCAUACCGGAAACGGACAUGAGGAUCACCCAUGUGGCGAAAGCCUAGGGAGAAGGCAGUAUGCUAC | true |
| UAGGAGUACGUAGGAUAUGUAGGAUAUUCCUACAUGAGGAUCACCCAUGUUAGCAUGGAAGAAGGACAGAAGGACGUGCUCCUU | true |

Problem: Given `GCUGUCGCUUGAGGAUAUGGUCAGCUUUGCUGACCAGAAGGCAUGUCAAUAGACAUGAGGAUCACCCAUGUAGUAAGGGCGGCU` , state whether its apparent Kd is at least 10 nM.
Solution: true

Problem: Given `ACAUGAGGAUCACCCAUGUAAAAUGAAGAAGGUAUAUACUUGAGGAUCACCCAUGUACAUGGGAAUAAGGAUAUUCUAAUAAUU` , state whether its apparent Kd is at least 10 nM.
Solution: true

Problem: Given `AAUUCAAACAGAGGAUAUUGUUUAUCUCUAUUGCAAGAAGGCUGAUCUUACUACCCACUUAUGAAACAUGAGGAUCACCCAUGU` , state whether its apparent Kd is at least 10 nM.
Solution: true

Problem: Given `UACACUACUGAGAAGGGAUACAUAUAAUUUUAGUCAGGAUAUCGAUACAGUGCAGCAUGAGGACAUGAGGAUCACCCAUGUAUU` , state whether its apparent Kd is at least 10 nM.
Solution: true

Problem: Given `GACACUAUGUUUGUCAGAUAGAGAGAGGAUAUGGCUCAUGAGACAUGAGGAUCACCCAUGUAUAAUCAGAAGGCUCGAGUAGGA` , state whether its apparent Kd is at least 10 nM.
Solution: false

Problem: Given `ACGCAGCUAGGUGAGGAUAUCGGUGGUAAAACAUGAGGAUCACCCAUGUCCGAAGCUCGGACUUCCGAGAAGGCGCCCGGCUGCA` , state whether its apparent Kd is at least 10 nM.
Solution: true

Problem: Given `UAUCUAUUUAUGGGAUUAGAUUAUGAGGAUAUCAUUUUUUUAUACAUGAGGAUCACCCAUGUUUCUGAGAAGGCAUAUUUAAUA` , state whether its apparent Kd is at least 10 nM.
Solution: false

Problem: Given `CCAUAUAAAUAAGGAUAUUAAGUUGAUUAUCCUCAAACAUGAGGAUCACCCAUGUAUAGUCUUAUUAAGAAGGUAUAGUGUUGG` , state whether its apparent Kd is at least 10 nM.
Solution: true

Problem: Given `GUAGCAUACCAAGGAUAUUUAGGGCUUUGAUAGACAUGAGGAUCACCCAUGUGGCGUUAGUCAAGGGAGAAGGUGGUAUGCUAC` , state whether its apparent Kd is at least 10 nM.
Solution: true

Problem: Given `CGAAGUCCGUAGAAGGGUGACAUGAGGAUCACCCAUGUGCGAGCCGUGGGAGUCAGCGGCUCGCCACAGGAUAUACGGAGCACG` , state whether its apparent Kd is at least 10 nM.
Solution: true
